B1: Hairpin Ribozyme (parent)
chain: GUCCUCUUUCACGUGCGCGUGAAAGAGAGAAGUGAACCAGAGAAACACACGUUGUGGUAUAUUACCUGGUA

- Variants of: B1
- method: self-cleavage, relative activity (ratio to wild type); higher = more cleavage; co-transcriptional
endpoint: self-cleavage
Answers are plain numbers.

Some variants with recorded self-cleavage:
>>> measured("GUCCUCUUUCUCGUGCGCGUGAAAGAGAGAAGUGAACCAGAGAAUCACACGUUGUGGUAUAUUACCUGGUA [A11U A45U]")
0.255
>>> measured("GUCCUCUGUCACGUGCGCGUGAAAGAGAGAAGUGUACCAGAGAAACACACGUUGUGGUAUAUUACCUGGUA [U8G A35U]")
0.673
>>> measured("GUCCUCUUUCACGUGCGCGUGAAAGAGAGAAGUGAACCAGAGAAACACACGUUGUGUUAUAUUGCCUGGUA [G57U A64G]")
0.202
>>> measured("GUCCUCUUUCACGUGCGCGGGAAAGAGAGGAGUGAACCAGAGAAACACACGUUGUGGUAUAUUACCUGGUA [U20G A30G]")
0.148
>>> measured("GUCCUCUUUCACGUGCGCGUGAAAGAGAGAAGUGAACCAGAGAAACACACGUUGCGGUAUAUUACCUAGUA [U55C G68A]")
0.166

Okay, here is my list. What is self-cleavage for each of these?
1. GUCCUCUUUCACGUGCGCGUGAAAGAGAGAACUGAACCAGAGAAACACACGUUAUGGUAUAUUACCUGGUA [G32C G54A]
2. GUCCUCUUUCACGCGCGCGUGAACGAGAGAAGUGAACCAGAGAAACACACGUUGUGGUAUAUUACCUGGUA [U14C A24C]
3. GUCCUCUUUCACUUGCGCGUGAAAGAGAGAAGUGAACCAGAGAAACACACGUUGUGGUUUAUUACCUGGUA [G13U A59U]
4. GUCCUCUUUCAAGUGCGCGUGAAAGAGAGAAGUGACCCAGAGAAACACACGUUGUGGUAUAUUACCUGGUA [C12A A36C]
5. GUCCUCUUUCACGUGUGCGUGAAAGAGAGAAGUGAACCAGAGAAACACACGUUGUGGAAUAUUACCUGGUA [C16U U58A]
6. GUCCUCAUUCACGUGCGCGUGAAAGAGAGAAGUGAACCAGAGAAACACACGUUGUGGUAUAUUACGUGGUA [U7A C66G]
7. GUCCUCUUUCACGUGCGCGAGAAAGAGAGAAGUGAACCAGAGAAACACACGUUGUGGUAUAUUACCUGGUG [U20A A71G]

Completion:
1: 0.0613; 2: 0.943; 3: 0.181; 4: 0.523; 5: 0.731; 6: 0.146; 7: 0.89

Okay, here is my list. What is self-cleavage for each of these?
1. GUCCUCUUUCACGUGCGCGUGAAAGAGAGAAGUGAAGCAGAGAAACACACGUUGUGGUAUAUUACCUGUUA [C37G G69U]
2. GUCCUCAUUCACGUGCGCGUGAAAGAGAGAAGUGAACCAGAGAAACACACGUUGUGGGAUAUUACCUGGUA [U7A U58G]
3. GUCCUCUUUCACGUGCGCGUGAAAGAGAGAAGUGACCCAGAAAAACACACGUUGUGGUAUAUUACCUGGUA [A36C G42A]

Completion:
0.644
0.775
0.0682
